Target: ENOX2 (tNOX) (Homo sapiens)
Sequence: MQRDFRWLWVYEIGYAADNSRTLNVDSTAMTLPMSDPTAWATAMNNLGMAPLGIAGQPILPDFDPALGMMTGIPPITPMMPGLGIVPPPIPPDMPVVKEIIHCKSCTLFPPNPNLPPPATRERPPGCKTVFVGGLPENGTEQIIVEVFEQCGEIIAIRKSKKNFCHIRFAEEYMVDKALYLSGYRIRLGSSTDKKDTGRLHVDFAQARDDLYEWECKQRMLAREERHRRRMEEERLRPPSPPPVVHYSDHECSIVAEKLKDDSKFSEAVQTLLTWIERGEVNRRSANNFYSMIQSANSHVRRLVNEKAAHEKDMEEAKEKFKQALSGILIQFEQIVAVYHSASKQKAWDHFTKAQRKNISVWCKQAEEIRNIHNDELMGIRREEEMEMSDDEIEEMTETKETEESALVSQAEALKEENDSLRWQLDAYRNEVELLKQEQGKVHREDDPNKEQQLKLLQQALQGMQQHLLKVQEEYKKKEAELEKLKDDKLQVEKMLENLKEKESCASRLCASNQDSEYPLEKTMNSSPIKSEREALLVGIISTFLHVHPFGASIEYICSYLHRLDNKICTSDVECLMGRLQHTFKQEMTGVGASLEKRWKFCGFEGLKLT
Test: EMSA
Details: apparent Kd; 1 nM aptamer, 0-100 nM ENOX2; 0.5 mM MgCl2; EMSA: 0.7% agarose, 0.5x TBE (65 mM Tris, 22.5 mM boric acid, 1.25 mM EDTA, 0.5 mM MgCl2, 0.005% Tween-20, pH 8.3); E-DNA: PBS pH 7.4 (137 mM NaCl, 10 mM …)
Measured metric: Kd (nM)
Answers are plain numbers, in nM.

Task: Which measured Kd belongs to TTTTTTAGATCCCTGTTCATCTGTCTCGAGTGTTCTTTAATGATCTTTTT [ENOX2-binding aptamer, 5' fluorescein] , tested on ENOX2 (tNOX) (Homo sapiens)?
Result: 0.4
